Data provenance: patent US20230080534A1

Target: T1, QIEKLVEGKSAIQ (not fully specified)
T1 construct: alanine at this position
T1 peptide: QIEKLVEGKSAIQ
Test: ELISA, immobilized peptide QIEKLVEGKSAIQ
No end group written: not given here.
Measured OD450 absorbance of individual entries

binder	OD450 absorbance
MM07 (antibody, V domains shown, The VH and VL begin with what look like leader peptides (MDWLW..., MVSSAQ...)) VH: QIQLVQSGPELKKPGETVRISCKASGYTLTTAGMQWVQKIPGKGLKWIGWINTHSGVAEFAEDFKGRFAFSLETSANTAYLQIRNLKNEDTATYFCARLGLLGYWGQGTTLTVSS VL: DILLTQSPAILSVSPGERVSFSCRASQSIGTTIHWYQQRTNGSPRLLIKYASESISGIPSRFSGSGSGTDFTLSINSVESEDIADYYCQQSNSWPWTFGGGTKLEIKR	1.16
MM05 (antibody, IgG1, V domains shown) VH: QVQLQQPGAELVRPGASVKLSCEASGYTFTSYWMNWVKQRPGQGLEWIGMIDPSDSETHYNQMFKDKATLTVDKSSSTAYMQLSSLTSEDSAVYYCARYLGGKEGSFDYWGQGTTLTVSS VL: DIVMSQSPSSLAVSAGEKVTMSCKSSQSLLNSRTRKNYLAWYQQKPGQSPKLLIYWASTRESGVPDRFTGSGSGTDFTLTISSVQAEDLAVYYCKQSYSLPWTFGGGTKLEIKR	1.26
MM02 (antibody, IgG2b, V domains shown) VH: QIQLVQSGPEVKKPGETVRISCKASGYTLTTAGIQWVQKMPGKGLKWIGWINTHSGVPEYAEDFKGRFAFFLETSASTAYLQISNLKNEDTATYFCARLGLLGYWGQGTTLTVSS VL: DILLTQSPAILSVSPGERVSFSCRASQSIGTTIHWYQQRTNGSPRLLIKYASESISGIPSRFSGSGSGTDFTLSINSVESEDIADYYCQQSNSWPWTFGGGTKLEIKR	1.26
MM14 (antibody, IgG2b, V domains shown) VH: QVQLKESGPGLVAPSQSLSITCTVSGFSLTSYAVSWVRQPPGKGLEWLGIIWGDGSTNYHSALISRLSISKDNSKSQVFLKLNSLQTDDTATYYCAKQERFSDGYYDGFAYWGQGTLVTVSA VL: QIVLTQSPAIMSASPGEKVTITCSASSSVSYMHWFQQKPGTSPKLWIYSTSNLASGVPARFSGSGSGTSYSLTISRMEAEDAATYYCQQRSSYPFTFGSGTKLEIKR	1.18

QUERY: Report OD450 absorbance for MM08 (antibody, IgG1, V domains shown) VH: QVQLQQPGAELVRPGASVKLSCKSSDYTFTRYWMNWVKQRPGQGLEWIGMIDPSDSETHHNQMFKDKATLTVDKSSSTAYMQLSSLTSEDSAVYFCARYLGGKEGSFDYWGQGTTLTVSS VL: DIVLTQSPSSLAVSAGERVTMSCKSSQSLFNSRTRKNYLAWYQQKPGQSPKLLLYWASTRESGVPDRFTGSGSGTDFTLTISSVKTEDLAVYYCKQSYELPWTFGGGTKLEMKR please.
RESULT: 1.22
